target: Complement C1s subcomponent (Homo sapiens); assay: Competitive inhibition of esterase activity of human activated C1s subunit of first complement component assessed as decrease in p-nitrophenol production using N-Z-L-Lys-ONp as substrate by spectrophotometric analysis
Sequence (P09871 16-437 limits assumed): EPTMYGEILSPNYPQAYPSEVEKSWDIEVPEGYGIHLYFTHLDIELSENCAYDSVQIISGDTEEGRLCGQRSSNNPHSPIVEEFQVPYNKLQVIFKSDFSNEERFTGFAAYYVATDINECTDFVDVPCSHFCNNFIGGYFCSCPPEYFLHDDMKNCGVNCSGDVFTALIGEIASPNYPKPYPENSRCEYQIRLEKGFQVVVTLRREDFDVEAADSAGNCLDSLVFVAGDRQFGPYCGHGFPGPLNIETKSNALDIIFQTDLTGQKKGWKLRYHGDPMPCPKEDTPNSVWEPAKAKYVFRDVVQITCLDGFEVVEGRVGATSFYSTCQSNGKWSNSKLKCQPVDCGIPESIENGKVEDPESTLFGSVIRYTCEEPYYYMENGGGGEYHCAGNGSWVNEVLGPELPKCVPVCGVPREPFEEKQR
Sequence (P09871 438-688 limits assumed): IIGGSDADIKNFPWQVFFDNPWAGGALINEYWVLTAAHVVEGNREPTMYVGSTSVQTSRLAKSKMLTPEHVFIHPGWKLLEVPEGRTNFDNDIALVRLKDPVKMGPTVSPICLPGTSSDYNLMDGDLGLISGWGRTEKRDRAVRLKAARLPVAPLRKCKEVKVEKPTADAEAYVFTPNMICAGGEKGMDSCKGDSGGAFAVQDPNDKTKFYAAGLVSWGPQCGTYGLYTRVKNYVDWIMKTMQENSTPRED
quantity: Ki

Challenge: API: value(readout=Ki, system=Complement C1s subcomponent (Homo sapiens)) for record N=C(N)c1cccc(CC(=O)C(=O)O)c1
Response given: 2.51 mM
